These measurements were taken from PubChem BioAssay AID1049.

Test protocol: TR-FRET signal artefacts, primary screen, artefact control for PPARgamma SRC-2 agonist project, biochemical (AID 1049)
Experimental conditions: TR-FRET artefact counter-screen; at 8 µM; stronger effect = higher value
In all, about 200,000 compounds went through this assay and about 780 (0.39%) were called active. Many of the other results were omitted from the sample, so actives are more common in it than they were.
Collected TR-FRET ratio values appear next to each entry.

- Structure as smiles: "Cc1ccc(C)c(NC2=NCCCS2)c1"
  TR-FRET ratio: "1500 (inactive)"
- Structure as smiles: "Cc1cccc(-n2c(O)c(C=NC34CN5CN(CN(C5)C3)C4)c(=O)[nH]c2=O)c1"
  TR-FRET ratio: "1640 (inactive)"
- Structure as smiles: "O=C(COC(=O)Cc1ccccc1)Nc1ccc(F)cc1"
  TR-FRET ratio: "1600 (inactive)"
- Structure as smiles: "CCCn1c(C(=O)c2ccccc2OC)nc2ccccc21"
  TR-FRET ratio: "1400 (inactive)"
- Structure as smiles: "CN(C)c1nc(N(C)C)nc(N(C#N)CCCl)n1"
  TR-FRET ratio: "1800 (inactive)"
- Structure as smiles: "O=c1[nH]c(=O)n(-c2ccccc2)c(O)c1C=NC12CN3CN(CN(C3)C1)C2"
  TR-FRET ratio: "1500 (inactive)"
